# Test system: Tobacco mosaic virus
# Assay Remarks: Antiviral activity against Tobacco mosaic virus (TMV) in tobacco leaf juice at 100 ug/ml after 72 hr by half-leaf method
# Assay type: functional
Class definitions on inhibition at 100 µg/mL: bin A = under 30%, bin B = from 30% up to 40%, bin C = 40% and over

INSERT INTO measurements (compound_smiles, class_assignment) VALUES
  ('CCOc1ccc2c3c(c4cc(OC)c(OC)cc4c2c1)C[C@H]1CCCN1C3', 'bin B'),
  ('COc1cc2c3c(c4ccc(OCCO)cc4c2cc1OC)CN1CCC[C@@H]1C3', 'bin C'),
  ('COc1cc2c3c(c4ccc(OCC#N)cc4c2cc1OC)CN1CCC[C@H]1C3', 'bin B'),
  ('COc1cc2c3c(c4ccc(OCCO)cc4c2cc1OC)CN1CCC[C@H]1C3', 'bin A'),
  ('C#CCOc1ccc2c3c(c4cc(OC)c(OC)cc4c2c1)C[C@@H]1CCCN1C3', 'bin C'),
  ('COc1cc2c3c(c4ccc(O)cc4c2cc1OC)CN1CCC[C@H]1C3', 'bin A');

----------
# System: Tobacco mosaic virus
# Assay Remarks: Antiviral activity against Tobacco mosaic virus (TMV) in tobacco plant leaf assessed as inactivation effect at 100 ug/ml after 3 to 4 days
# Assay type: functional
Value Kind: inhibition at 100 µg/mL (%)

INSERT INTO measurements (compound, measurement_target, meas_value) VALUES
  ('COc1ccc2c3c(c4cc(OC)c(OC)cc4c2c1)C[C@H]1CCCN1C3 [(-)-ANTOFINE]', 'Tobacco mosaic virus', 29.4),
  ('C#CCOc1ccc2c3c(c4cc(OC)c(OC)cc4c2c1)C[C@@H]1CCCN1C3', 'Tobacco mosaic virus', 42.4),
  ('COc1cc2c3c(c4ccc(O)cc4c2cc1OC)CN1CCC[C@H]1C3', 'Tobacco mosaic virus', 17.8);

----------
# System: Tobacco mosaic virus
# Assay Remarks: Antiviral activity against Tobacco mosaic virus (TMV) in tobacco leaf juice at 100 ug/ml after 72 hr by half-leaf method
# Type: functional
Value Kind: inhibition at 100 µg/mL (%)

INSERT INTO assay_data (molecule, value_kind, value_unit, meas_value) VALUES
  ('COc1ccc2c3c(c4cc(OC)c(OC)cc4c2c1)C[C@H]1CCCN1C3 [(-)-ANTOFINE]', 'inhibition at 100 µg/mL', '%', 30.4),
  ('COc1ccc2c3c(c4cc(OC)c(OC)cc4c2c1)C[C@@H]1CCCN1C3 [HYPOESTESTATIN 1]', 'inhibition at 100 µg/mL', '%', 30.5),
  ('COc1cc2c3c(c4ccc(O)cc4c2cc1OC)CN1CCC[C@@H]1C3', 'inhibition at 100 µg/mL', '%', 40),
  ('COc1cc2c3c(c4ccc(OCC#N)cc4c2cc1OC)CN1CCC[C@@H]1C3', 'inhibition at 100 µg/mL', '%', 40);
